Hi there, I'd appreciate the recorded activation at 1 µM for every entry that follows.
Target: glucocerebrosidase (Gcase) (Homo sapiens, UniProt P04062)
Construct: micellar solution containing 10 nM GCase and 100 nM saposin C (Enzo ALX-201-262-C050)
Assay: Glucocerebrosidase (Gcase) activation assay, 4-methylumbelliferyl-beta-D-glucopyranoside substrate, with saposin C
Assay type: biochemical
Settings: read-out: Percent Gcase Activation 1 μM Test Compound

# example entries with known answers
COMPOUND: COc1cccc(NC(=O)c2cnc3scc(C)n3c2=O)c1
SUBJECT_OF_TEST: glucocerebrosidase (Gcase) (Homo sapiens, UniProt P04062)
activation at 1 µM: 5 to 20%
//
COMPOUND: CC(Cc1ccc(Cl)cc1)NC(=O)c1cnc2n(c1=O)CCS2 (stereo not shown)
SUBJECT_OF_TEST: glucocerebrosidase (Gcase) (Homo sapiens, UniProt P04062)
activation at 1 µM: 5 to 20%
//
COMPOUND: CC(C)c1ccc(NC(=O)c2cnc3sccn3c2=O)cn1
SUBJECT_OF_TEST: glucocerebrosidase (Gcase) (Homo sapiens, UniProt P04062)
activation at 1 µM: < 5%
//
COMPOUND: C[C@@H](NC(=O)c1cnc2n(c1=O)CCS2)c1ccccc1
SUBJECT_OF_TEST: glucocerebrosidase (Gcase) (Homo sapiens, UniProt P04062)
activation at 1 µM: < 5%

Hi, could you look up activation at 1 µM for each item in my list?
1. Cc1cccc2ncc(C(=O)NC3CCOc4ccccc43)c(=O)n12 (stereo not shown)
2. O=C(Nc1ccc2c(c1)CCC2)c1cnc2n(c1=O)CCS2
3. C#Cc1ccc(NC(=O)c2cnc3cccc(C)n3c2=O)cc1

1: 5 to 20%; 2: 5 to 20%; 3: 5 to 20%

* * *

Target: glucocerebrosidase (Gcase) (Homo sapiens)
Construct: micellar solution containing 10 nM GCase and 100 nM saposin C (Enzo ALX-201-262-C050)
Assay: Glucocerebrosidase (Gcase) activation assay, 4-methylumbelliferyl-beta-D-glucopyranoside substrate, with saposin C
Format: biochemical
Details: read-out: Percent Gcase Activation 1 μM Test Compound
PROPERTY_NAME: activation at 1 µM

Recorded activation at 1 µM, per entry:
MOLECULE: CCCCc1ccc(NC(=O)c2cnc3scc(C)n3c2=O)cc1
PROPERTY_NAME: activation at 1 µM
RESULT: > 20%

MOLECULE: CCN1CCN(c2ccc(NC(=O)c3cnc4n(c3=O)CCS4)cc2)CC1
PROPERTY_NAME: activation at 1 µM
RESULT: 5 to 20%

MOLECULE: Cc1csc2ncc(C(=O)Nc3ccc(Cl)cc3)c(=O)n12
PROPERTY_NAME: activation at 1 µM
RESULT: > 20%

MOLECULE: COc1ccc(NC(=O)c2cnc3scc(C)n3c2=O)c(OC)c1
PROPERTY_NAME: activation at 1 µM
RESULT: 5 to 20%

MOLECULE: O=C(Nc1ccc(N2CCCCC2)cc1)c1cnc2n(c1=O)CCS2
PROPERTY_NAME: activation at 1 µM
RESULT: < 5%

MOLECULE: CCc1ccc(NC(=O)c2cnc3scc(C)n3c2=O)cc1
PROPERTY_NAME: activation at 1 µM
RESULT: > 20%

MOLECULE: CN1Cc2ccc(NC(=O)c3cnc4n(c3=O)CCS4)cc2C1
PROPERTY_NAME: activation at 1 µM
RESULT: 5 to 20%

MOLECULE: Cc1ccc(NC(=O)c2cnc3n(c2=O)CCS3)cc1-c1ncco1
PROPERTY_NAME: activation at 1 µM
RESULT: 5 to 20%

MOLECULE: O=C(Nc1ccc(-c2ccco2)cc1)c1cnc2n(c1=O)CCS2
PROPERTY_NAME: activation at 1 µM
RESULT: 5 to 20%

MOLECULE: Cc1ccc(NC(=O)c2cnc3sccn3c2=O)cc1C
PROPERTY_NAME: activation at 1 µM
RESULT: 5 to 20%

// batch mode: one activation at 1 µM value per listed entry
1. CCc1cccc(NC(=O)c2cnc3scc(C)n3c2=O)c1
2. COC(=O)c1ccc(NC(=O)c2cnc3scc(C)n3c2=O)cc1

["> 20%", "5 to 20%"]

* * *

Biological target: glucocerebrosidase (Gcase) (Homo sapiens)
Construct: micellar solution containing 10 nM GCase and 100 nM saposin C (Enzo ALX-201-262-C050)
Sequence (P04062 40-536): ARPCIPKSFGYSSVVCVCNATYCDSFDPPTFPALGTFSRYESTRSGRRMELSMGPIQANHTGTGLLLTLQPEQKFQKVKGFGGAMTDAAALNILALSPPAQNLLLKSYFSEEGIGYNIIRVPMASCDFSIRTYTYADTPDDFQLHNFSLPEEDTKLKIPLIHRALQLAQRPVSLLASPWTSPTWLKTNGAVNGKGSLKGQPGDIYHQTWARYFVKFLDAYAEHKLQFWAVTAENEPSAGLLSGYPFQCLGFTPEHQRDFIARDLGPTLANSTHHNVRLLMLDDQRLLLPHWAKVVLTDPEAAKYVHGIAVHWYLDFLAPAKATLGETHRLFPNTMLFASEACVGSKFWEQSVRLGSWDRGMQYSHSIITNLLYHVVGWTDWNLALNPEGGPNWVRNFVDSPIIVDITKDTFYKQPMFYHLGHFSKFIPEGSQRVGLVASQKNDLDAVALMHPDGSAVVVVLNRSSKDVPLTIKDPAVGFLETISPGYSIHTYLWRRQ
Test: Glucocerebrosidase (Gcase) activation assay, 4-methylumbelliferyl-beta-D-glucopyranoside substrate, with saposin C
Format: biochemical
Settings: read-out: Percent Gcase Activation 0.1 μM Test Compound
PROPERTY_NAME: activation at 0.1 µM

COMPOUND: O=C(NCC1COc2ccccc2O1)c1cnc2sccn2c1=O (stereo not drawn)
PROPERTY_NAME: activation at 0.1 µM
RESULT: < 5%
//
COMPOUND: O=C(NC1CC2CCC1C2)c1cnc2n(c1=O)CCS2 (stereo not drawn)
PROPERTY_NAME: activation at 0.1 µM
RESULT: < 5%

Note: attention shifts to another entry.
# query: activation at 0.1 µM | item O=C(NC1CCCCC12CCCCO2)c1cnc2n(c1=O)CCS2 (stereo not drawn) | system: glucocerebrosidase (Gcase) (Homo sapiens)
< 5%

* * *

Assign solubility to each entry below.
Experiment: Compound solubility in water
Assay type: physicochemical
Give bare numbers, in µg/mL.

Dear colleague, could you send me solubility for each of the items below? Thanks.
1. CCC(C)c1ccc(NC(=O)c2cnc3cccc(C)n3c2=O)cc1 (stereo not drawn)
2. CCC(C)c1ccc(NC(=O)c2cnc3ccc(C)cn3c2=O)cc1 (stereo not drawn)

1. 1
2. 0.05

Parameters: items (list). Returns: solubility for each item.
1. O=C(NC1CCc2ccccc2C1)c1cnc2n(c1=O)CCS2 (stereo not drawn)
2. O=C(NC1CCC(c2ccccc2)CC1)c1cnc2n(c1=O)CCS2 (stereo not drawn)
3. Cc1cccc2ncc(C(=O)Nc3ccc(N4CCCCC4)cc3)c(=O)n12
4. C[C@H](NC(=O)c1cnc2n(c1=O)CCS2)c1ccccc1
5. C[C@@H](NC(=O)c1cnc2n(c1=O)CCS2)c1ccccc1
6. Cc1cccc2ncc(C(=O)Nc3ccc4c(c3)CN(C)C4)c(=O)n12
7. O=C(Nc1ccc(N2CCCCC2)cc1)c1cnc2n(c1=O)CCS2

1. 30.7
2. 10.6
3. 1.4
4. 37.2
5. 36.8
6. 35.4
7. 4

Please give solubility for each item listed below.
1. Cc1cccc2ncc(C(=O)NC3CCc4ccccc43)c(=O)n12 (stereo not drawn)
2. CC(C)c1ccc(NC(=O)c2cnc3sccn3c2=O)nc1
3. CCCCC1CCC(NC(=O)c2cnc3cccc(C)n3c2=O)CC1 (stereo not drawn)

6.8
2.7
0.4

# per-item lookup of solubility; items listed below
1. Cc1csc2ncc(C(=O)Nc3ccc(C(C)C)cc3)c(=O)n12
2. CCC(C)c1ccc(NC(=O)c2cnc3c(C)cccn3c2=O)cc1 (stereo not drawn)
3. Cc1cccc2ncc(C(=O)Nc3ccc(-n4ccnc4)cc3)c(=O)n12
4. O=C(NC1CCCc2ccccc21)c1cnc2n(c1=O)CCS2 (stereo not drawn)
5. CCc1ccc(NC(=O)c2cnc3n(c2=O)CCS3)cc1
6. CCN1CCN(c2ccc(NC(=O)c3cnc4n(c3=O)CCS4)cc2)CC1
7. O=C(NC1CCc2ccccc21)c1cnc2n(c1=O)CCS2 (stereo not drawn)

1: 0.5; 2: 0.5; 3: 1.2; 4: 7.1; 5: 5.1; 6: 34.8; 7: 17.6

Each compound below has a reported value. Please supply its solubility.
1. C#Cc1ccc(NC(=O)c2cnc3sccn3c2=O)cc1
2. CCc1ccc(NC(=O)c2cnc3scc(C)n3c2=O)cc1
3. O=C(NC1CCC2(CCCCO2)CC1)c1cnc2n(c1=O)CCS2 (stereo not drawn)
4. CCCCCO[C@H]1CC[C@H](NC(=O)c2cnc3n(c2=O)CCS3)CC1

1. 3.4
2. 1.1
3. 29.5
4. 8.4

Give solubility for all compounds that follow.
1. O=C(NC1CCCCC12CCCCO2)c1cnc2n(c1=O)CCS2 (stereo not drawn)
2. CCCCc1ccc(NC(=O)c2cnc3cccc(C)n3c2=O)cc1
3. C#Cc1ccc(NC(=O)c2cnc3cccc(C)n3c2=O)cc1
4. Cc1cccc2ncc(C(=O)Nc3ccc(C4CCCCC4)cc3)c(=O)n12
5. O=C(Nc1ccc2c(c1)OCCO2)c1cnc2n(c1=O)CCS2
6. CCN1CCN(c2ccc(NC(=O)c3cnc4cccc(C)n4c3=O)cc2)CC1
7. CCCCC1CCC(NC(=O)c2cnc3n(c2=O)CC(C)S3)CC1 (stereo not drawn)

1. 37.2
2. 0.05
3. 1.5
4. 0.2
5. 9.5
6. 33.3
7. 1.2
